This listing pairs compounds with measured IC50.
Target: FKBP52 (FK1 domain) (Homo sapiens, UniProt Q02790)
Sequence (Q02790 50-138 limits assumed): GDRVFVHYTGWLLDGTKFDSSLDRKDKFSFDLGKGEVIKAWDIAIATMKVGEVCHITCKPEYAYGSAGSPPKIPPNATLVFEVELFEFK
Assay: Fluorescence polarization assay, binding affinity to FKBP52 (FK1 domain)
Conditions: fluorescence polarization assay using tracer 2b; read-out: FKBP52FK1 IC50
Report the figure in µM without appending any unit label.

compound	IC50 / µM
COc1ccc(CC[C@@H](OC(=O)[C@@H]2CCCCN2C(=O)C(=O)C2CCCCC2)c2cccc(OCC(=O)O)c2)cc1OC [Compound 8]	9.53
COc1ccc(CC[C@@H](OC(=O)[C@@H]2CCCCN2C(=O)C(=O)[C@]2(O)CCCC[C@@H]2C)c2cccc(OCC(=O)O)c2)cc1OC [Compound 6a]	2.2
COc1ccc(CC[C@@H](OC(=O)[C@@H]2CCCCN2C(=O)C(=O)c2cc(OC)c(OC)c(OC)c2)c2cccc(OCC(=O)O)c2)cc1OC [Compound 9]	11.6
COc1ccc(CC[C@@H](OC(=O)[C@@H]2CCCCN2C(=O)C(=O)[C@]2(O)CCCC[C@H]2C)c2cccc(OCCN3CCOCC3)c2)cc1OC [Compound 2]	0.89
COc1ccc(CC[C@@H](OC(=O)[C@@H]2CCCCN2C(=O)C(=O)[C@]2(O)CCCC[C@H]2C)c2cccc(OCC(=O)O)c2)cc1OC [Compound 1a]	2.44
CC[C@H]1CCCC[C@]1(O)C(=O)C(=O)N1CCCC[C@H]1C(=O)O[C@H](CCc1ccc(OC)c(OC)c1)c1cccc(OCC(=O)O)c1 [Compound 3b]	3.5
COc1ccc(CC[C@@H](OC(=O)[C@@H]2CCCCN2C(=O)C(=O)c2ccc(Oc3ccccc3)cc2)c2cccc(OCC(=O)O)c2)cc1OC [Compound 10]	1.71
CC[C@@H]1CCCC[C@@]1(O)C(=O)C(=O)N1CCCC[C@H]1C(=O)O[C@H](CCc1ccc(OC)c(OC)c1)c1cccc(OCCN2CCOCC2)c1 [Compound 4]	3.72
COc1ccc(CC[C@@H](OC(=O)[C@@H]2CCCCN2C(=O)C(=O)c2cc(Cl)cc(Cl)c2)c2cccc(OCC(=O)O)c2)cc1OC [Compound 11]	5.6
COc1ccc(OCCOC(=O)C2CCCCN2C(=O)C(=O)[C@]2(O)CCCC[C@H]2C)cc1OC (stereo partly drawn) [Reference Example 2*, reference compound]	11.7

State its IC50: CCC1CCCCC1(O)C(=O)C(=O)N1CCCC[C@H]1C(=O)O[C@H](CCc1ccc(OC)c(OC)c1)c1cccc(OCC(=O)O)c1 (stereo in doubt) [Compound 7] 9.77

State its IC50: CC[C@@H]1CCCC[C@@]1(O)C(=O)C(=O)N1CCCC[C@H]1C(=O)O[C@H](CCc1ccc(OC)c(OC)c1)c1cccc(OCC(=O)O)c1 [Compound 3a] 4.2

State its IC50: COc1ccc(CC[C@@H](OC(=O)[C@@H]2CCCCN2C(=O)C(=O)[C@@]2(O)CCCC[C@H]2C)c2cccc(OCC(=O)O)c2)cc1OC [Compound 6b] 2.64

State its IC50: COc1ccc(CC[C@@H](OC(=O)[C@@H]2CCCCN2C(=O)C(=O)[C@]2(O)CCCC[C@H]2CO)c2cccc(OCC(=O)O)c2)cc1OC [Compound 5] 6.2

State its IC50: CC(C)C(C)(C)C(=O)C(=O)N1CCCC[C@H]1C(=O)O[C@H](CCc1ccccc1)c1ccccc1 [Reference Example 9, reference compound] 61.2

State its IC50: COc1ccc(CC[C@@H](OC(=O)[C@@H]2CCCCN2C(=O)C(=O)C(C)(C)C)c2cccc(OCC(=O)O)c2)cc1OC [Reference Example 6, reference compound] 46.2

Source: patent US20150018340A1
